Entry source: PubChem BioAssay

# experiment summary: MELAS cybrid and Rieske KO viability enhancers – cell-based, MELAS cybrids, Rieske KO mouse fibroblasts, CellTiter-Glo, primary screen (AID 1508586); also: test concentration not given here
# reported conditions: MELAS cybrid survival, low glucose, CellTiter-Glo 48 h
Calls of active or inactive are those of the source.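 The calls were made as follows: active = mean z-score across replicates of 1.96 or higher in either the MELAS or the Rieske mutant cell line; inactive = the rest.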
The reply should name one outcome from active, inactive

| compound | assigned label |
| --- | --- |
| CCOC(=O)c1nn(Cc2ccc(OC)cc2)c2c1CN(C(=O)CSc1ncccn1)CC2 | inactive |

GET /call?item= NC(=O)NC(CCC(=O)O)C(=O)O (stereo unspecified) returns the recorded outcome of this test.
inactive

I would be grateful if you could indicate the recorded call for CN1CC2c3ccccc3Oc3ccc(Cl)cc3C2C1 (stereo unspecified) .
inactive

Name the outcome recorded for `O=C(O)c1ccc2ccccc2n1` in the assay.
inactive

Give the logged outcome of this assay for the following compound: `C[C@H]1NC(=O)[C@@H]2C[C@H](NC(=O)c3cnn(-c4ccccc4)c3C(F)(F)F)CN2C1=O`
inactive

Query: recorded result category for `COc1cc2ncnc(Sc3nnc(C)s3)c2cc1OC` in this test
active

What did the test return for CCNC(=O)C1OC(n2cnc3c(N)nc(NCCc4ccc(CCC(=O)O)cc4)nc32)C(O)C1O (stereo unspecified) ?
inactive

Please state the recorded outcome for this compound: `OCCCc1cn(CC2CCN(c3ncnc4nc[nH]c34)CC2)nn1`
inactive

So what was the verdict on CC1(C)O[C@@H]2C[C@H]3[C@@H]4C[C@@H](F)C5=CC(=O)C=C[C@]5(C)[C@]4(F)C(O)C[C@]3(C)[C@@]2(C(=O)CO)O1 (stereo partly specified) in this test?
inactive

Record request — test call for Cc1ccc(C(C)CCN2CCc3c(c(C(=O)N4CCC(O)CC4)nn3CCc3ccccc3)C2)o1 (stereo unspecified)
inactive

Name the outcome recorded for `CCc1c(C(=O)NCCc2ccc(N3CCCCC3)cc2)[nH]c2ccc(Cl)cc12` in the assay.
inactive

For this compound, state the assay outcome: CCCC(NC(=O)C(C#N)=Cc1cccc(Br)n1)c1ccccc1 (stereo unspecified)
active
